- Tested on: CLK3
- setup.conditions: concentration: 1 μM, replicates: in singlicate; n = 1;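 further: KINOMEscan kinase panel screen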
Documented %Inh across a set of compounds
experimental.endpoint: %Inh (%)

1. Cc1ccc(NC(=O)Nc2ccccc2F)cc1-c1ccc(C(=O)Nc2ccncc2)cc1 [GSK1398477]
3
2. COc1ccc(CSc2nnc(-c3ccc4nccn4c3)o2)cc1C(F)(F)F
12
3. c1ccc(-c2ccnc3[nH]ccc23)cc1 [SB-693578]
29
4. Nc1cccc(-c2ccc3c(N)n[nH]c3c2)n1 [GSK2192730]
0
5. Fc1ccc(-c2nc[nH]c2-c2ccncc2)cc1 [SB-217360]
10
6. COC(=O)C(Cc1ccccc1)NC(=O)NC1CCN(c2ccnc(Nc3ccc(F)cc3)n2)C1 (stereo not drawn) [GSK1379714]
0
7. CCCCc1nn2ncccc2c1-c1ccnc(NC2CC2)n1 [GW684374]
90.7
8. O=C(Nc1n[nH]c2nc(-c3ccco3)c(Br)cc12)C1CCN(Cc2ccccc2)C1.O=C(O)[C@H](O)[C@@H](O)C(=O)O (stereo not drawn) [SB-742034]
0
9. COc1ccc(CSc2nnc(-c3ccc4c(c3)CCO4)o2)cc1
0
10. CC(=O)c1c(C)c2cnc(Nc3ccc(N4CCNCC4)cn3)nc2n(C2CCCC2)c1=O
100
11. O=C1NC(=O)C(c2ccc(Cl)cc2)=C1Nc1ccc(O)cc1 [SB-340867]
0
12. CC(C)c1cc(-c2ccc3c(N)n[nH]c3c2)nc(N)n1 [GSK2250882]
0
13. Cc1ccc(NC(=O)Nc2ccc(Cl)cc2)cc1-c1ccc(C(=O)Nc2ccncc2)cc1 [GSK1398472]
14
14. COc1cccc(NC(=O)Nc2ccc(C)c(-c3ccc(C(=O)Nc4ccncc4)cc3)c2)c1 [GSK1398474]
65
15. Cc1cnc(N)c(/C=C/c2cncc(C(=O)NCCc3ccc(Cl)cc3Cl)c2)c1.Cl [GSK190937]
0
16. Cc1c(Cn2c3ccccc3n3c(=O)cc(N4CCOCC4)nc23)cccc1C(F)(F)F [GSK2306394]
0
17. O=C(Nc1n[nH]c2cc(-c3ccsc3)ccc12)C1CC1 [SB-732932]
0
18. CCn1c(-c2c(N)noc2C)nc2cnccc21 [SB-737856]
0
19. O=C(Nc1n[nH]c2nc(-c3cccs3)c(Br)cc12)C1CC1 [SB-735297]
0
20. COc1ccc(Nc2nccc(N3CCC(NC(=O)C(C)c4ccc(Cl)cc4)C3)n2)cc1 (stereo not drawn) [GSK1379735]
0
21. Cc1c(Cn2c(C)c(C)n3c(=O)cc(N4CCOCC4)nc23)cccc1C(F)(F)F [GSK2328680]
6
22. CCn1c(-c2ccccc2)nc2cnccc21 [SB-733416]
0
23. Cn1cnc2c(N)ncnc21 [SKF-97623]
2
24. Cc1nccc(-c2c(-c3ccc(F)cc3)ncn2CCCN2CCOCC2)n1.Cl [SB-282975]
18

* * *

Documented %Inh across a set of molecules
- System: PAK3
- setup.conditions: concentration: 1 μM, replicates: in singlicate; n = 1
experimental.endpoint: %Inh (%)

1. COc1ccc(Nc2nccc(-c3ccc(NC(=O)c4cc5cc(F)ccc5[nH]4)cc3)n2)cc1
0
2. COc1cccc(NC(=O)Nc2ccc(C)c(-c3ccc(C(=O)Nc4ccncc4)cc3)c2)c1
27
3. CC(=O)c1cccc(NC(=O)NC2CCN(c3ccnc(Nc4ccc(F)cc4)n3)C2)c1 (stereo not shown)
0
4. Cc1ccc(-c2nc(Nc3ccncc3)c3ccccc3n2)s1
6
